Give pEC50 for every item shown.
# targetEntity: Mas-related G-protein coupled receptor member X2 (Homo sapiens, UniProt Q96LB1)
# Sequence (Q96LB1 whole entry): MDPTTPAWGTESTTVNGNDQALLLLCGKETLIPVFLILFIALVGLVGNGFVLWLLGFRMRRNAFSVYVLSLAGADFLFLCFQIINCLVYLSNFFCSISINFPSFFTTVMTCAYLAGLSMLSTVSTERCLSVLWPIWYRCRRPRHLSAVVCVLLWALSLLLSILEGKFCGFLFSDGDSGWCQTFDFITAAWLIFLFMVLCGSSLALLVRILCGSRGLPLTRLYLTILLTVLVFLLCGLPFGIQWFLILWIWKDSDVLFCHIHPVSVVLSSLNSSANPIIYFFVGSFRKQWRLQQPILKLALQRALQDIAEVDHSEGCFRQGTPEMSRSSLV
# testDescription: PRESTO-Tango Assay
# testContext: pH 7.4; 30 °C
# log scale: pEC50 equals minus log10 of the concentration in mol/L

Prompt: GET /values?readout=pEC50&system=Mas-related G-protein coupled receptor member X2 (Homo sapiens, UniProt Q96LB1)&item= CN1CC[C@]23CCCC[C@@H]2[C@H]1Cc1ccc(O)cc13 [Dextrorphan]
Response: 5.38

Prompt: Could you do the same for CC(=O)O[C@H]1C=C[C@H]2[C@H]3Cc4ccc(O)c5c4[C@@]2(CCN3C)[C@H]1O5 [6-Acetylmorphine] , please?
Response: 4.92

Prompt: Same read-out for C[C@H]1C2Cc3ccc(O)cc3[C@@]1(C)CCN2 ?
Response: 4.85

Prompt: Item: CN1CC[C@@]2(c3cccc(O)c3)Cc3nc4ccccc4cc3C[C@@H]2C1 [(+)-TAN-67]
Response: 6.37

Prompt: Next compound: CN1CC[C@@]23CCCC[C@H]2[C@@H]1Cc1ccc(O)cc13 [Levorphanol]
Response: 4.66

Cited source for all entries: BindingDB's records for doi:10.1038/nchembio.2334
